- study-target: human CB2 receptor (Homo sapiens)
- Sequence (P34972 whole entry): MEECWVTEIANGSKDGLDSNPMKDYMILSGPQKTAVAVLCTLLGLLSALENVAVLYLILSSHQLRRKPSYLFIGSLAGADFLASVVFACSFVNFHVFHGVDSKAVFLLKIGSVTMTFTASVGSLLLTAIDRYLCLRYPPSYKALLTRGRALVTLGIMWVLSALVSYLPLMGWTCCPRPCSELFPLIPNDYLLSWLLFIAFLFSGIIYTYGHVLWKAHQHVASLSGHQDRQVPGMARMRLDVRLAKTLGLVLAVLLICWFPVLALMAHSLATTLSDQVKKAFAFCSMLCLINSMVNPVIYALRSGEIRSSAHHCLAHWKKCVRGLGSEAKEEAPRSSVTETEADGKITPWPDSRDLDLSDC
pKi: −log10 of the molar value.
Use 7 as the dividing line for pKi, with the line itself on the class 1 side and lower values as class 0.

Quick check: does C[C@H]1CC[C@H]2[C@H](C1)c1c(O)cc(-c3ccccc3)cc1OC2(C)C [11A] have pKi greater than or equal to 7?
class 0

Quick check: does C[C@H]1CC[C@H]2[C@H](C1)c1c(O)cc(-c3csc4ccccc34)cc1OC2(C)C [11J] have pKi greater than or equal to 7?
class 1

Quick check: does CCCCCC/C=C/c1cc(O)c2c(c1)OC(C)(C)[C@H]1CC[C@H](C)C[C@H]21 [11E] have pKi greater than or equal to 7?
class 0

---

This section presents compounds with their documented pIC50 values.
- study-target: human CB2 receptor (Homo sapiens)
- method-summary: Competitive radioligand
- Type: binding
- recorded-conditions: IC50 ± SEM CB2, competitive radioligand binding; triplicate
On this scale, pIC50 is minus log10 of a concentration expressed in M (mol/L).

Examples from the recorded data:
C[C@H]1CC[C@H]2[C@H](C1)c1c(O)cc(-c3csc4ccccc34)cc1OC2(C)C [11J]    7.10
C[C@H]1CC[C@H]2[C@H](C1)c1c(O)cc(-c3cccc4c3oc3ccccc34)cc1OC2(C)C [11H]    6.89
C[C@H]1CC[C@H]2[C@H](C1)c1c(O)cc(-c3ccccc3)cc1OC2(C)C [11A]    5.50

Proceed to the following item.
pIC50 for CCCCCC/C=C/c1cc(O)c2c(c1)OC(C)(C)[C@H]1CC[C@H](C)C[C@H]21 [11E] ?
5.94

---

- study-target: human CB2 receptor (Homo sapiens)
- method-summary: [35S]-GTPγS functional assay, CB2
- recorded-conditions: EC50 GTPγS CB2, duplicate
recorded-endpoint: pEC50
On this scale, pEC50 is minus log10 of a concentration expressed in M (mol/L).

pEC50 for C[C@H]1CC[C@H]2[C@H](C1)c1c(O)cc(-c3cccc4c3oc3ccccc34)cc1OC2(C)C [11H] ?
5.24

---

- study-target: human CB1 receptor (Homo sapiens)
- Sequence (P21554 whole entry): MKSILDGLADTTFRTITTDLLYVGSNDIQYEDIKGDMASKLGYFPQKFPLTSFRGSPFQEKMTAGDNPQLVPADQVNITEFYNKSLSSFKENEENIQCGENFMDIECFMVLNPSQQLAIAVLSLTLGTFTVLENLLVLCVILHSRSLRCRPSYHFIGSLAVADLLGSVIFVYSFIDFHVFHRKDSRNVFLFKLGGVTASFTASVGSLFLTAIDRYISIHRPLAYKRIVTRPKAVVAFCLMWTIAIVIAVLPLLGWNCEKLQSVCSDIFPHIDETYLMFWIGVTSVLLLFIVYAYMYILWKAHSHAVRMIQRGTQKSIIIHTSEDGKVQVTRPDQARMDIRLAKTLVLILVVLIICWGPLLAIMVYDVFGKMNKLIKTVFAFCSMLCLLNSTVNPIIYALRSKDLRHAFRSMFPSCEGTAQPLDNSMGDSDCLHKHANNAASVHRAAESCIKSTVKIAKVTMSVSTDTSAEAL
recorded-endpoint: pKi
On this scale, pKi is minus log10 of a concentration expressed in M (mol/L).

Give pKi (human CB1 receptor (Homo sapiens)) of the following compound: CCCCCC/C=C/c1cc(O)c2c(c1)OC(C)(C)[C@H]1CC[C@H](C)C[C@H]21 [11E]
6.47

---

- study-target: human CB2 receptor (Homo sapiens)
- method-summary: Competitive radioligand
- Format: binding
- recorded-conditions: read-out: % displacement at 10 μM CB2
recorded-endpoint: inhibition at 10 µM (%)
# value in %; strip the unit string

Examples from the recorded data:
C[C@H]1CC[C@H]2[C@H](C1)c1c(O)cc(/C=C/c3ccc(Cl)cc3)cc1OC2(C)C [11G]    8.7
C[C@H]1CC[C@H]2[C@H](C1)c1c(O)cc(-c3ccc4c(c3)OCO4)cc1OC2(C)C [11B]    67

inhibition at 10 µM for C[C@H]1CC[C@H]2[C@H](C1)c1c(O)cc(-c3ccc(Oc4ccccc4)cc3)cc1OC2(C)C [11I] ?
16.3

inhibition at 10 µM for C[C@H]1CC[C@H]2[C@H](C1)c1c(O)cc(-c3cc(C(F)(F)F)cc(C(F)(F)F)c3)cc1OC2(C)C [11K] ?
11.2

inhibition at 10 µM for C[C@H]1CC[C@H]2[C@H](C1)c1c(O)cc(-c3ccc(C#N)cc3)cc1OC2(C)C [11C] ?
22.1

inhibition at 10 µM for C[C@H]1CC[C@H]2[C@H](C1)c1c(O)cc(-c3ccccc3)cc1OC2(C)C [11A] ?
57.3

inhibition at 10 µM for C[C@H]1CC[C@H]2[C@H](C1)c1c(O)cc(/C=C/c3ccc(C(F)(F)F)cc3)cc1OC2(C)C [11F] ?
23.9

inhibition at 10 µM for CCCCCC/C=C/c1cc(O)c2c(c1)OC(C)(C)[C@H]1CC[C@H](C)C[C@H]21 [11E] ?
50.4

Source: paper PMC8359128
